tested on: SW480; assay: Inhibition of RSL3-induced ferroptosis in human SW480 cells assessed as cell viability at 200 nM incubated for 24 hrs by CCK8 assay; format: functional, cell-based
The source made the active and inactive calls. No cut-off for these calls is given here.

{"Structure smiles": "CC(C)COC(=O)c1cccc(O)c1N", "Test system": "SW480", "inhibition": "Active"}
{"Structure smiles": "Cc1cc2nc(-c3cccc(O)c3N)[nH]c2cc1C", "Test system": "SW480", "inhibition": "Active"}
{"Structure smiles": "COc1ccc(/C=N/NC(=O)c2cccc(O)c2N)cc1", "Test system": "SW480", "inhibition": "Active"}
{"Structure smiles": "Cc1ccc(CSc2nnc(-c3cccc(O)c3N)o2)cc1", "Test system": "SW480", "inhibition": "Active"}

* * *

Consider the following compounds and their measured EC50 readings.
system: HT-1080; assay: Inhibition of RSL3-induced ferroptosis in human HT-1080 cells assessed as cell viability incubated for 24 hrs by CCK8 assay; format: functional, cell-based; details: HT-1080, 24 h
Give the number; nM is assumed, so skip it.

{"Structure smiles": "Cn1c(-c2cccc(O)c2N)nc2ccccc21", "Unit symbol": "nM", "EC50": 237}
{"Structure smiles": "Nc1c(O)cccc1-c1nc2cc(Cl)c(Cl)cc2[nH]1", "Unit symbol": "nM", "EC50": 293}

Read the next record carefully.
# input compound: `Nc1c(O)cccc1-c1nnc(SCc2ccccc2)o1` ; wanted: its EC50 238

* * *

system: HT-1080; test: Inhibition of RSL3-induced ferroptosis in human HT-1080 cells assessed as cell viability incubated for 24 hrs by CCK8 assay; assay type: functional, cell-based; settings: HT-1080, 24 h
Consider the following compounds and their measured pEC50 readings.
Hey, just a heads up that pEC50 is the negative log base 10 of the concentration in molar.

{"Structure smiles": "CSc1nnc(-c2cccc(O)c2N)o1", "pEC50": 7.00}
{"Structure smiles": "Nc1c(O)cccc1-c1nc2ccccc2[nH]1", "pEC50": 6.58}
{"Structure smiles": "Nc1c(O)cccc1C(=O)N/N=C/c1ccc[nH]1", "pEC50": 6.47}

# input compound: `Nc1c(O)cccc1C(=O)N/N=C/c1ccccn1` ; wanted: its pEC50 6.72

# input compound: `COC(=O)c1cccc(O)c1N` ; wanted: its pEC50 6.28

# input compound: `Nc1c(O)cccc1-c1nnc(SCc2ccc3ccccc3c2)o1` ; wanted: its pEC50 6.22

# input compound: `N#Cc1ccc(CSc2nnc(-c3cccc(O)c3N)o2)cc1` ; wanted: its pEC50 6.28

# input compound: `COc1ccc(CSc2nnc(-c3cccc(O)c3N)o2)cc1` ; wanted: its pEC50 6.75

# input compound: `Cc1cc2nc(-c3cccc(O)c3N)[nH]c2cc1C` ; wanted: its pEC50 6.74

# input compound: `CCCCOC(=O)c1cccc(O)c1N` ; wanted: its pEC50 6.41

* * *

tested on: HT-1080; assay: Inhibition of RSL3-induced ferroptosis in human HT-1080 cells assessed as cell viability incubated for 24 hrs by CCK8 assay; type: functional, cell-based; details: HT-1080, 24 h
Consider the following molecules and their measured log10 of EC50 readings.
Record value = log10 of EC50 given in nM.

Recorded log10 of EC50, per entry:
{"Structure smiles": "CC(C)OC(=O)c1cccc(O)c1N", "log10 of EC50": 2.59}
{"Structure smiles": "Nc1c(O)cccc1C(=O)N/N=C/c1ccc([N+](=O)[O-])cc1", "log10 of EC50": 2.81}
{"Structure smiles": "Nc1c(O)cccc1-c1nnc(SCc2ccc(F)cc2)o1", "log10 of EC50": 2.54}
{"Structure smiles": "Nc1c(O)cccc1C(=O)N/N=C/c1ccccc1", "log10 of EC50": 2.44}

# input molecule: `Nc1c(O)cccc1-c1nnc(SCc2ccc([N+](=O)[O-])cc2)o1` ; wanted: its log10 of EC50 2.94

# input molecule: `N#Cc1cccc(/C=N/NC(=O)c2cccc(O)c2N)c1` ; wanted: its log10 of EC50 2.86

# input molecule: `CCOC(=O)c1cccc(O)c1N` ; wanted: its log10 of EC50 2.10

# input molecule: `Cc1ccc(CSc2nnc(-c3cccc(O)c3N)o2)cc1` ; wanted: its log10 of EC50 1.66

# input molecule: `CCOC(=O)c1ccc(NC2CCCCC2)c(N)c1` ; wanted: its log10 of EC50 2.31
